biological target: CYP2D6 (Homo sapiens, UniProt P10635); construct: was investigated in HLMs; tissue iPhase Pharmaceutical Services (Beijing, China) Lot # 7MMC011; host or cells: pooled human liver microsomes; assay: Inhibition of CYP activities by GA in HLMs (dextromethorphan); type: biochemical; settings: human, human liver microsomes, probe dextromethorphan (10 µM); read-out: Relative activity (%)
Sequence (P10635 whole entry): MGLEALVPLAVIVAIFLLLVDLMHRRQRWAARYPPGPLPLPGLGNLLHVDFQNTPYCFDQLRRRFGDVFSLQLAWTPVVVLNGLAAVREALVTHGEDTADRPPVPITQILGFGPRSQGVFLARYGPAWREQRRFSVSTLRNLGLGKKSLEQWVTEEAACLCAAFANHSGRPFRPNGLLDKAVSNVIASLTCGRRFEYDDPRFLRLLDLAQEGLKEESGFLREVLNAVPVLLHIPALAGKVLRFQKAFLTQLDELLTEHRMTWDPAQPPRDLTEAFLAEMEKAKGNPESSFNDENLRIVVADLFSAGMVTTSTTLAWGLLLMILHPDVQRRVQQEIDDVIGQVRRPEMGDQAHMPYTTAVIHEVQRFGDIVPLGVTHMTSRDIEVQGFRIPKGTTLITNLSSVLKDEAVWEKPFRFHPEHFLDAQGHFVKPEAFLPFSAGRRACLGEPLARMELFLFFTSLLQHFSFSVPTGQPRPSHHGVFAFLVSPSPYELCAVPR
EXPERIMENTAL ENDPOINT: activity at 30 min, […] (%)

1. CC1(C)[C@@H](O)CC[C@]2(C)[C@H]3C(=O)C=C4[C@@H]5C[C@@](C)(C(=O)O)CC[C@]5(C)CC[C@@]4(C)[C@]3(C)CC[C@@H]12: 69.7

----------
experiment: Toxicokinetics of BAK in rat plasma after a single oral dose; assay type: in vivo, Sprague–Dawley rats; conditions: Sprague-Dawley, plasma; rat, single oral; BAK 200 mg/kg, with ABT or GA 100 mg/kg where named
EXPERIMENTAL ENDPOINT: Tmax (h)

1) C=C[C@@](C)(/C=C/c1ccc(O)cc1)CCC=C(C)C: 3.6

----------
target: CYP2D6 (Homo sapiens, UniProt P10635); construct: was investigated in HLMs; tissue iPhase Pharmaceutical Services (Beijing, China) Lot # 7MMC011; host or cells: pooled human liver microsomes; assay: Inhibition of CYP activities by GA in HLMs (dextromethorphan); assay type: biochemical; conditions: human, human liver microsomes, probe dextromethorphan (10 µM); CYP2D6-30min; GA 156.25; vs control; read-out: Relative activity (%)
EXPERIMENTAL ENDPOINT: activity at 30 min, 156.25 µM (%)

1) CC1(C)[C@@H](O)CC[C@]2(C)[C@H]3C(=O)C=C4[C@@H]5C[C@@](C)(C(=O)O)CC[C@]5(C)CC[C@@]4(C)[C@]3(C)CC[C@@H]12 [GA, Glycyrrhetinic acid]: 81.7

----------
Molecular target: CYP3A4 (Homo sapiens, UniProt P08684)
Construct: was investigated in HLMs; tissue iPhase Pharmaceutical Services (Beijing, China) Lot # 7MMC011; host or cells: pooled human liver microsomes
Sequence (P08684 whole entry): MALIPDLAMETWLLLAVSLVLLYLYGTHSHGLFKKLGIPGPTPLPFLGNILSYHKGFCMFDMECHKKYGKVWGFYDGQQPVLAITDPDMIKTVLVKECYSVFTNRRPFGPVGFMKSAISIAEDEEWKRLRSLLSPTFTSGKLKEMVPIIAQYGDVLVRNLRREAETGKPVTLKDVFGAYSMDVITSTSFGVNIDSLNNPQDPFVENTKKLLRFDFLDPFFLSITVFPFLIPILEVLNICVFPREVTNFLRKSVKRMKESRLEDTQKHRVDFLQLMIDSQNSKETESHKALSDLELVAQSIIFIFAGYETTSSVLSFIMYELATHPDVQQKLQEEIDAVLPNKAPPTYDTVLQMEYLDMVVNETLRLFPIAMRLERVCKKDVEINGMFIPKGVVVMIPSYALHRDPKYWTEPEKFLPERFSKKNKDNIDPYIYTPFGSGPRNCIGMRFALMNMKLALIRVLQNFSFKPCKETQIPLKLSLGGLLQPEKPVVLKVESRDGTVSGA
Assay: Inhibition of CYP activities by GA in HLMs (midazolam)
Assay type: biochemical
Settings: HLMs, 30 min pre-incubation with NADPH, midazolam 10 µM; µM
Description: The samples containing HLMs were prepared in an ice bath, and three replicates of each dose were tested. The reaction system consisted of 0.5 g/L HLMs, 1 mM NADPH, 25 µM phenacetin (CYP1A2 substrate), 25 µM tolbutamide (CYP2C9 substrate), 25 µM mephenytoin (CYP2C19 substrate), 10 µM dextromethorphan (CYP2D6 substrate) and 10 µM midazolam (CYP3A4 substrate). After incubation at 37 °C for 30 min, 200 µL of methanol containing 100 µg/L propranolol hydrochloride was added to terminate the reaction. […]
EXPERIMENTAL ENDPOINT: IC50

1) CC1(C)[C@@H](O)CC[C@]2(C)[C@H]3C(=O)C=C4[C@@H]5C[C@@](C)(C(=O)O)CC[C@]5(C)CC[C@@]4(C)[C@]3(C)CC[C@@H]12: 1.53 µM

----------
target: CYP3A4 (Homo sapiens, UniProt P08684); construct: was investigated in HLMs; tissue iPhase Pharmaceutical Services (Beijing, China) Lot # 7MMC011; host or cells: pooled human liver microsomes; assay: Inhibition of CYP activities by GA in HLMs (midazolam); type: biochemical; conditions: human, human liver microsomes, probe midazolam (10 µM); CYP3A4-30min; GA 0.10; vs control; read-out: Relative activity (%)
EXPERIMENTAL ENDPOINT: activity at 30 min, 0.1 µM

1. CC1(C)[C@@H](O)CC[C@]2(C)[C@H]3C(=O)C=C4[C@@H]5C[C@@](C)(C(=O)O)CC[C@]5(C)CC[C@@]4(C)[C@]3(C)CC[C@@H]12: 95.9%
